target: Neu5Gc(a2-3)Gal(b1-4)GlcNAc; assay: glycan array binding signal (z-score within array); higher = stronger binding; settings: glycan notation: IUPAC condensed, linker removed
Shown is part of a subset that was picked to be rich in the strongest signals.
Reported glycan array binding signal (z-score) values follow for various binders

# count of solved cases: 8
binder	glycan array binding signal (z-score)
FedF (Escherichia coli), Q47212 (protein) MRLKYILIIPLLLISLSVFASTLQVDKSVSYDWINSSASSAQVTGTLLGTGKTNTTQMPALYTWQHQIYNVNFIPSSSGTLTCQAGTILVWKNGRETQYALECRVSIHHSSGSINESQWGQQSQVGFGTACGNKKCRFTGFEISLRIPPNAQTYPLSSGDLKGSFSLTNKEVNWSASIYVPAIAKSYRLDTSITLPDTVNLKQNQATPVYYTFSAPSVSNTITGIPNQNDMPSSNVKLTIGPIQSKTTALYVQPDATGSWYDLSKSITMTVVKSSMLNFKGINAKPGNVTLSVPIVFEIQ	-0.223
SBD-G4S3-SBD (protein) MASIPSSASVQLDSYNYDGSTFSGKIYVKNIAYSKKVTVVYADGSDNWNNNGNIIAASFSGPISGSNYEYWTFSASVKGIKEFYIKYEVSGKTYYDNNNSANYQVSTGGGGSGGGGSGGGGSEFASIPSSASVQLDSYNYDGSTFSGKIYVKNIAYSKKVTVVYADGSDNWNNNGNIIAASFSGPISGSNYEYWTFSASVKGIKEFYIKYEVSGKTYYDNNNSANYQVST	-0.326
SSA (Sclerotinia sclerotiorum), A7XUK7 (protein) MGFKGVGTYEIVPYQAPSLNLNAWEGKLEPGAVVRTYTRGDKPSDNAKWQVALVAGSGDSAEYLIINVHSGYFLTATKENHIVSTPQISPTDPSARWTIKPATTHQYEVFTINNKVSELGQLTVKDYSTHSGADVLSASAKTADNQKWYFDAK	-0.366
Epa2 (Candida glabrata) (protein) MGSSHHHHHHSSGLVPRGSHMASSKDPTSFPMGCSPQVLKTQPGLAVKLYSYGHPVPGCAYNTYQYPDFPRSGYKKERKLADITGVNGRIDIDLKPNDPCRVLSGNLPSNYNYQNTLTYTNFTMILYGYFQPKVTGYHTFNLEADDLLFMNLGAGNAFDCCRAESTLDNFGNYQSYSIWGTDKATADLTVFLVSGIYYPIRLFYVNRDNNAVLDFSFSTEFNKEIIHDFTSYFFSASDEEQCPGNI	-0.248
PEB3 (Campylobacter jejuni), Q0PBL7 (protein) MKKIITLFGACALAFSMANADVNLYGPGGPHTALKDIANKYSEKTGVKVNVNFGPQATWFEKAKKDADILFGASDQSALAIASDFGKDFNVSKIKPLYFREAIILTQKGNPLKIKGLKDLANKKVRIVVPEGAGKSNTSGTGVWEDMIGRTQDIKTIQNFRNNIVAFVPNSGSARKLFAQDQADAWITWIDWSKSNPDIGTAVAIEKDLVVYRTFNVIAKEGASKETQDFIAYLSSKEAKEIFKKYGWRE	-0.701
Pwp2 (Candida glabrata) (protein) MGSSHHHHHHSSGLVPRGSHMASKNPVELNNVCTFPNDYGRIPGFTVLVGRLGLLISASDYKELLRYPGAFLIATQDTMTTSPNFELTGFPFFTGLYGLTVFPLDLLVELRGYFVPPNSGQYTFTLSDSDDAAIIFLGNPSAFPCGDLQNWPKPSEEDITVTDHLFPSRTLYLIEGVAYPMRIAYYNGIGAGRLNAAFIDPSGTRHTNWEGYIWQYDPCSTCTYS	0.982
RS2L (Ralstonia solanacearum), B5RXL5_RALSO (protein) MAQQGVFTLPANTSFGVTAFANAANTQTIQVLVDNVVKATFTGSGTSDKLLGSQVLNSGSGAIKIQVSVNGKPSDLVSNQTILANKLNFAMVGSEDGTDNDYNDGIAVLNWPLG	-0.242
BSR4 (Toxoplasma gondii), Q95NL6 (protein) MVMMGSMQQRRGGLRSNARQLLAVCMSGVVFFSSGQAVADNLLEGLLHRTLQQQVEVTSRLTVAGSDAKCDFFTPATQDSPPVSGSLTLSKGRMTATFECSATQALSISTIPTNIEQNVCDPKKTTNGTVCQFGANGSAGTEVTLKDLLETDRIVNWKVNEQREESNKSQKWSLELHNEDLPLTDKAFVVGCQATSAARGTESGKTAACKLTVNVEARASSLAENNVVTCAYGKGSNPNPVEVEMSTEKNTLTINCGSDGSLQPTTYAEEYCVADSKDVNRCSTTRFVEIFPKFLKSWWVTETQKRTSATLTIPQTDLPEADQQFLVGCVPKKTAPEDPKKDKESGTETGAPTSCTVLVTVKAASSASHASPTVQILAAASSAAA	-0.102

PfulAvr4 2 (Pseudocercospora fuligena) (protein) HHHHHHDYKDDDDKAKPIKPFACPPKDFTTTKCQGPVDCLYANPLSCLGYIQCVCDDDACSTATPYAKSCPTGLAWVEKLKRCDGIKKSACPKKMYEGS has a reported glycan array binding signal (z-score) of -0.214

CFEM-CGl (Candida glabrata), Q6FRS0 (protein) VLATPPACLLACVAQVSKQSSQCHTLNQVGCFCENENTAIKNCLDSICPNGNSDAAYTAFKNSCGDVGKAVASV has a reported glycan array binding signal (z-score) of -0.194

GST Gap3 (Streptococcus parasanguinis) (protein) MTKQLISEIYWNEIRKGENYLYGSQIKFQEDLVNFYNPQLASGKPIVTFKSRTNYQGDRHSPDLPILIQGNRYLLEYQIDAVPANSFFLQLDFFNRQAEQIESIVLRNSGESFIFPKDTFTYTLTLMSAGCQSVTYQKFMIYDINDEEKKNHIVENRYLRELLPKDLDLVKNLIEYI has a reported glycan array binding signal (z-score) of -0.209

GH95CBM (Clostridium perfringens) (protein) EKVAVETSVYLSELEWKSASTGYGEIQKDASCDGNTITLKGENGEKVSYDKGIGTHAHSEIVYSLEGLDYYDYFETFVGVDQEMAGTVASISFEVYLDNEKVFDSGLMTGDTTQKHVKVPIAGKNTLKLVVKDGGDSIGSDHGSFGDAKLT has a reported glycan array binding signal (z-score) of -0.34

Epa15 (Candida glabrata) (protein) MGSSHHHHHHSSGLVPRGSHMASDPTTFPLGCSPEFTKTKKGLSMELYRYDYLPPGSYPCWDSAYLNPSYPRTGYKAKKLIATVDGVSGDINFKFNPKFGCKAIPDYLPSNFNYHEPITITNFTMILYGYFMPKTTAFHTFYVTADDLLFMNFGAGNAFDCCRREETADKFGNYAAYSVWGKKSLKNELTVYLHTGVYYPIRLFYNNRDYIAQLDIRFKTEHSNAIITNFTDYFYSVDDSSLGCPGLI has a reported glycan array binding signal (z-score) of -0.437
